Values compiled from the supplement of paper PMC11208160.

# assay_overview: recombinant UMI read abundance after kanamycin selection (control-corrected) (log10(CPM+1)); higher = more efficient recombination; extreme values may be limits of the assay; sequences stand for … in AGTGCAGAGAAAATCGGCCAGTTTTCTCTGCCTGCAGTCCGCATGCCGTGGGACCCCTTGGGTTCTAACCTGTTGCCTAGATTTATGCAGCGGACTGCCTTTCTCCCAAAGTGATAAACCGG…AGGTTGGTTTCACT; site = the 11-nt donor;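 further: IS621 bridge recombinase in Escherichia coli cells against a fixed T5 target plasmid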
Threshold check on recombinant UMI read abundance (log10): at or above 2 gives True, strictly below gives False.

| sequence_code | label_class |
| --- | --- |
| TAGGAATCATGGACCGGTTTTCCCGGTAATCCGTATTTGCT (site TAGGAATCTAG) | True |
| CAATGCTCATGGACCGGTTTTCCCGGTAATCCGTATTTGAG (site CAATGCTCTCT) | True |
| CCCTAGCCATGGACCGGTTTTCCCGGTAATCCGTATTTGCT (site CCCTAGCCTGG) | False |
| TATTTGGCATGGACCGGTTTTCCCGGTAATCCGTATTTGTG (site TATTTGGCTTA) | False |
| CAAAGTCCATGGACCGGTTTTCCCGGTAATCCGTATTTGTA (site TAAAGTCCTTA) | False |
| GGTGCGTCATGGACCGGTTTTCCCGGTAATCCGTATTTGTT (site GGTGCGTCTAA) | False |
| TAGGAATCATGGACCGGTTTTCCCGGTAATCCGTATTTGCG (site TAGGAATCTCG) | True |
| ACAGGATCATGGACCGGTTTTCCCGGTAATCCGTATTTGCA (site ACAGAATCTTG) | True |
| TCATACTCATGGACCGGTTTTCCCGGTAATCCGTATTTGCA (site TCTTACTCTTG) | True |
